System: HeLa cells
Assay: mitotic index assay (phospho-Histone H3) in HeLa cells
Type: cell-based
Conditions: 10-25 μM, 7 h
Consider the following compounds and their measured Mitotic index (%) readings.
Form entry: value (%) — number only.

Please review the following examples before continuing.
>>> reported("N#Cc1cccnc1S(=O)(=O)CCOC(=O)c1cccc(Cl)c1")
0.81
>>> reported("COc1ccc(-c2oc3ccccc3c(=O)c2OS(=O)(=O)c2cc(OC)ccc2OC)cc1")
30.13
>>> reported("COc1ccc(-c2oc3ccccc3c(=O)c2OS(=O)(=O)c2ccccc2)cc1")
29.44

The record that follows has no Mitotic index (%) shown yet.
[in] Need Mitotic index (%) of Cc1cc(C(F)(F)F)cc(S(=O)(=O)CCOC(=O)c2cccc(Cl)c2)n1 , thanks.
[out] 15.73

###

Target: Plk1-Map interaction (Homo sapiens)
Sequence (P53350 whole entry): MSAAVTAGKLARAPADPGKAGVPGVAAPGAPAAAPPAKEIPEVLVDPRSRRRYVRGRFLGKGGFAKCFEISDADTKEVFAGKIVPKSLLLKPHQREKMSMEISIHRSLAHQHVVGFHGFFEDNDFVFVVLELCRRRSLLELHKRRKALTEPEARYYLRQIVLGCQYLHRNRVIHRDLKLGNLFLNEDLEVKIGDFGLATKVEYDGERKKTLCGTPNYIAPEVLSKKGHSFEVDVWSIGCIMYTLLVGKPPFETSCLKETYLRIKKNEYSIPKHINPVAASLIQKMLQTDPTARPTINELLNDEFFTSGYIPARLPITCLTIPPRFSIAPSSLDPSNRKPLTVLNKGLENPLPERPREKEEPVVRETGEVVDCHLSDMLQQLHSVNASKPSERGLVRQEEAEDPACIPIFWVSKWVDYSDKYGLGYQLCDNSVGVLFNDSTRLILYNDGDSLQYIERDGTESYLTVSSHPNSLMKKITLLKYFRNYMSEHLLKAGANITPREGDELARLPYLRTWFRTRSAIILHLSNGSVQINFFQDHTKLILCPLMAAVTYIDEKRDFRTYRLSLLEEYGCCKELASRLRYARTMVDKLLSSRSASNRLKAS
Assay: LUMIER co-immunoprecipitation assay Plk1-Map
Details: mean divided by maximum mean of the compounds
measurement.label: Relative Luminescence Unit
Could you keep your reply to the number by itself?

>>> reported("O=c1c(O)cccc2cc(O)c(O)c(O)c12 [PPG, purpurogallin, reference compound]")
0.351

The record that follows has no Relative Luminescence Unit shown yet.
[in] Need Relative Luminescence Unit of N#Cc1cccnc1S(=O)(=O)CCOC(=O)c1cccc(Cl)c1 , thanks.
[out] 0.017

###

Molecular target: Plk1-Map interaction (Homo sapiens)
Experiment: LUMIER co-immunoprecipitation assay Plk1-Map
Details: mean divided by maximum mean of the compounds
measurement.label: Relative Luminescence Unit
Could you keep your reply to the number by itself?

>>> reported("COc1ccc(-c2oc3ccccc3c(=O)c2OS(=O)(=O)c2cc(OC)ccc2OC)cc1 [Cpd 69]")
0.866
>>> reported("COc1ccc(-c2oc3ccccc3c(=O)c2OS(=O)(=O)c2ccccc2)cc1 [Cpd 46]")
0.219
>>> reported("COc1ccc(-c2oc3ccccc3c(=O)c2OS(=O)(=O)c2cc(Cl)ccc2Cl)cc1 [Cpd 122]")
0.776

The record that follows has no Relative Luminescence Unit shown yet.
[in] Need Relative Luminescence Unit of Cc1cc(C(F)(F)F)cc(S(=O)(=O)CCOC(=O)c2cccc(Cl)c2)n1 [Cpd 16] , thanks.
[out] 0.022

Values were extracted from paper PMC5118709.
